biological target: SMARCA2 (Homo sapiens, UniProt P51531); assay: MSD SMARCA2 degradation in A549 cell line; format: cell-based; settings: A549 cells, 24 h, read-out: SMARCA2 MSD A549 degradation 24 h: Average external-Abs DC50
Sequence (P51531 whole entry): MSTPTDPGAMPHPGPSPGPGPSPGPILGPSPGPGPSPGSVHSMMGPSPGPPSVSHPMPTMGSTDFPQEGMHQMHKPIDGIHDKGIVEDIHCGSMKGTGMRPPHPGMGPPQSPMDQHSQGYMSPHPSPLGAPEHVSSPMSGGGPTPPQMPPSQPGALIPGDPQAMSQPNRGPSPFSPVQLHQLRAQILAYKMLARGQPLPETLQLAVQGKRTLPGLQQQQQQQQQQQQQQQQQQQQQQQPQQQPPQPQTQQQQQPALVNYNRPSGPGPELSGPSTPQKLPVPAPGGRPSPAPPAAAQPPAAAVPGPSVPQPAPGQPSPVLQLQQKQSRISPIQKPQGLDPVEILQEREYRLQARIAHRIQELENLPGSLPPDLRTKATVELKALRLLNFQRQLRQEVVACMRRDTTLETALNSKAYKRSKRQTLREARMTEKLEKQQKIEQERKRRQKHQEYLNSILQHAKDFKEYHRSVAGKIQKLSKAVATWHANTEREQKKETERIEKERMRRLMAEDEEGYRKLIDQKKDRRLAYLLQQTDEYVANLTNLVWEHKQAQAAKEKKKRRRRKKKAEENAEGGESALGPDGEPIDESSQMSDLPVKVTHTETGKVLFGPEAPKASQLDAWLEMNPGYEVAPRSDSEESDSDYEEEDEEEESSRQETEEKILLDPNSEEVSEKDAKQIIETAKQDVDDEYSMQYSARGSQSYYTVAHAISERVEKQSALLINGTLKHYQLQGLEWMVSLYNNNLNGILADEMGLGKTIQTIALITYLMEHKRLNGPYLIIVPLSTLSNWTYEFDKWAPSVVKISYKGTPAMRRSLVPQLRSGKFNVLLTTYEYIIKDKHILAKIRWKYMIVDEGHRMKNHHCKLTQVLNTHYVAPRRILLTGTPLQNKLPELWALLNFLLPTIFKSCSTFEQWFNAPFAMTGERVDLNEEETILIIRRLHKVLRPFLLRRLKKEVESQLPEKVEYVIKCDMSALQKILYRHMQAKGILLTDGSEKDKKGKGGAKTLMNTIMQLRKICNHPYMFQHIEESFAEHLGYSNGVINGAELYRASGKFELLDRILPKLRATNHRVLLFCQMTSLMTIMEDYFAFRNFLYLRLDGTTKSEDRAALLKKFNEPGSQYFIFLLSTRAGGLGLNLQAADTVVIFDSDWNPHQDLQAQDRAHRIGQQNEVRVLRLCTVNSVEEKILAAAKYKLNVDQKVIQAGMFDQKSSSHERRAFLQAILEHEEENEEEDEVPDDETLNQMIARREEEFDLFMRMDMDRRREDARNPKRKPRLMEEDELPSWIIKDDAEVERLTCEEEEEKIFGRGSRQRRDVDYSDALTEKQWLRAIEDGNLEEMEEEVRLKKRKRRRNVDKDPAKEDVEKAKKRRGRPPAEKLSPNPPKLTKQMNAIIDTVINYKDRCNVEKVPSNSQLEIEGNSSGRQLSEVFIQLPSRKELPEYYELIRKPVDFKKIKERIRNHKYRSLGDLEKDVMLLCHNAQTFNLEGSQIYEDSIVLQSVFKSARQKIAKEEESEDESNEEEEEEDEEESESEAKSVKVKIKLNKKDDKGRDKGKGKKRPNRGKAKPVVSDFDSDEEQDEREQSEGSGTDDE
Hi there, I'd appreciate the recorded DC50 for every entry that follows.

- Cc1ncsc1-c1ccc(CNC(=O)[C@@H]2C[C@@H](O)CN2C(=O)[C@@H](NC(=O)[C@H]2CC[C@@H](N3CCC(n4cc(-c5cc(-c6ccccc6O)nnc5N)cn4)CC3)CC2)C(C)(C)C)cc1: > 1000 nM
- Cn1c(=O)n(C2CCC(=O)NC2=O)c2ccc(CCCN3CCC(c4nccc(N5C6CCC5CN(c5cc(-c7ccccc7O)nnc5N)C6)n4)CC3)cc21 (stereo not shown): < 100 nM
- Cc1ncsc1-c1ccc(CNC(=O)[C@@H]2C[C@@H](O)CN2C(=O)[C@@H](NC(=O)CN2CCN([C@H]3CC[C@@H](c4cnc(N5C6CCC5CN(c5cc(-c7ccccc7O)nnc5N)C6)nc4)CC3)CC2)C(C)(C)C)cc1 (single isomer, unassigned): 100 to 500 nM

Hi there! I need DC50 for each item below, if you can.
1. Cc1ncsc1-c1ccc(CNC(=O)[C@@H]2C[C@@H](O)CN2C(=O)[C@@H](NC(=O)CNCc2ccc(C#Cc3cc(NC(=O)Nc4cc(F)ncc4CO)ccn3)cc2)C(C)(C)C)cc1
2. Cc1ncsc1-c1ccc(CNC(=O)[C@@H]2C[C@@H](O)CN2C(=O)[C@@H](NC(=O)[C@H]2CC[C@H](C(=O)N(C)Cc3cnc(N4C5CCC4CN(c4cc(-c6ccccc6O)nnc4N)C5)nc3)CC2)C(C)(C)C)cc1
3. Cc1ncsc1-c1ccc(CNC(=O)[C@@H]2C[C@@H](O)CN2C(=O)[C@@H](NC(=O)CN2CCN(C3CCC(c4cnc(N5C6CCC5CN(c5cc(-c7ccccc7O)nnc5N)C6)nc4)CC3)CC2)C(C)(C)C)cc1 (stereo partly shown)
4. CN(CCCOCCCc1cccc2c1n(C)c(=O)n2C1CCC(=O)NC1=O)Cc1ccc(C#Cc2cc(NC(=O)Nc3cc(F)ncc3CO)ccn2)cc1 (stereo not shown)
5. Cc1ncsc1-c1ccc(CNC(=O)[C@@H]2C[C@@H](O)CN2C(=O)[C@@H](NC(=O)[C@H]2C[C@H](N3CCC(c4cnc(N5C6CCC5CN(c5cc(-c7ccccc7O)nnc5N)C6)nc4)CC3)C2)C(C)(C)C)cc1

> 1000 nM
100 to 500 nM
< 100 nM
> 1000 nM
100 to 500 nM

Hi there! I need DC50 for each item below, if you can.
1. Cc1ncsc1-c1ccc(CNC(=O)[C@@H]2C[C@@H](O)CN2C(=O)[C@@H](NC(=O)C2CCN(Cc3cnc(N4C5CCC4CN(c4cc(-c6ccccc6O)nnc4N)C5)nc3)CC2)C(C)(C)C)cc1 [I-384]
2. O=C1CCC(n2c(=O)oc3c(CCCOC4CCN(Cc5ccc(C#Cc6cc(NC(=O)Nc7cc(F)ncc7CO)ccn6)cc5)CC4)cccc32)C(=O)N1 (stereo not shown)

100 to 500 nM
> 1000 nM

====

target: SMARCA4 (Homo sapiens, UniProt P51532); construct: SMARCA2 and SMARCA4 protein degradation in MV4-11 cells; endogenous in cells; host or cells: MV4-11; experiment: SMARCA4 Western blot MV4-11 degradation; assay type: cell-based; settings: MV4-11 cells, 24 h, read-out: SMARCA4 WB MV411 degradation 24 h: Average external-Abs DC50
Sequence (P51532 whole entry): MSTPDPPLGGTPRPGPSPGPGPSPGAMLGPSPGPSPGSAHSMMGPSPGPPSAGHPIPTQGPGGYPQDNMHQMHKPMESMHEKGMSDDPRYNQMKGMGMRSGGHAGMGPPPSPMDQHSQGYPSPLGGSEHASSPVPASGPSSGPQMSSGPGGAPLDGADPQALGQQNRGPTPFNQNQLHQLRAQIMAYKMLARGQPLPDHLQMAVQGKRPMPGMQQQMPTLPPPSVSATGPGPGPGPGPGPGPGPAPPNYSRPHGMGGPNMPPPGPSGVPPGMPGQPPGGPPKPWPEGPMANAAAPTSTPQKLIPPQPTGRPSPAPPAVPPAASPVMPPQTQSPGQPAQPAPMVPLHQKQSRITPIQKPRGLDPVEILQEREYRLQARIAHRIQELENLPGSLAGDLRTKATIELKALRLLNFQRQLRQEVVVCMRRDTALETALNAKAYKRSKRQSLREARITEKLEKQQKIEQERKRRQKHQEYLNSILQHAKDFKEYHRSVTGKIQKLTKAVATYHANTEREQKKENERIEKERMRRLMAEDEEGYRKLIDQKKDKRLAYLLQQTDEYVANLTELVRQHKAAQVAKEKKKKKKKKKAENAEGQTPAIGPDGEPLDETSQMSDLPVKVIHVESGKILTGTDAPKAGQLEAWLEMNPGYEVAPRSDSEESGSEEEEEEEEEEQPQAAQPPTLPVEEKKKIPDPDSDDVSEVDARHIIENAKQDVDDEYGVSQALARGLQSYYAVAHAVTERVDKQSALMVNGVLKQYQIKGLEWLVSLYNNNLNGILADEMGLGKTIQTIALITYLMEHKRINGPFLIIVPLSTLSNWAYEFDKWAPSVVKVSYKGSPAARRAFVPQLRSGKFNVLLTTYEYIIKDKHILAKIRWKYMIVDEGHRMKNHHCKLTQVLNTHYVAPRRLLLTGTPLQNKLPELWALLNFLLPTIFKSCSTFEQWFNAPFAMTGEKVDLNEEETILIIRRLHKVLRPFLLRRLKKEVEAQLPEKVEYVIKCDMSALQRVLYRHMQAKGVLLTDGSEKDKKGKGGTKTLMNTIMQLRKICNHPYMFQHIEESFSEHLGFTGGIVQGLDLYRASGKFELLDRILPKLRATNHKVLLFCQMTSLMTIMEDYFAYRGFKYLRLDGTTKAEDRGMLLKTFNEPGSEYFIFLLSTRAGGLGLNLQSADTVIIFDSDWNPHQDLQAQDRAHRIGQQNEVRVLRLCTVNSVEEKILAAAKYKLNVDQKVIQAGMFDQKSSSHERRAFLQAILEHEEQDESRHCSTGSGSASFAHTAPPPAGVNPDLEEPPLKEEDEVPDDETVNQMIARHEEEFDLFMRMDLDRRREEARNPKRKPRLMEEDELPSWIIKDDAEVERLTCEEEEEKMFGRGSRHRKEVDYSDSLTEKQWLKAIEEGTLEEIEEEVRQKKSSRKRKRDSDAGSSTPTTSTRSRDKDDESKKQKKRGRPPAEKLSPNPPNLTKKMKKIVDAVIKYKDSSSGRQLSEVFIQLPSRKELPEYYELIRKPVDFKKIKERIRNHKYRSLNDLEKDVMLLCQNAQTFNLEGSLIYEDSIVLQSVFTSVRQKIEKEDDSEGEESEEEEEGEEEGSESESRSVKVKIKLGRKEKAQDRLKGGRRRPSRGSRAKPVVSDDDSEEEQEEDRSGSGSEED
Hi there, I'd appreciate the recorded DC50 for every entry that follows.

Worked examples, 2 compounds total:
- Cc1ncsc1-c1ccc(CNC(=O)[C@@H]2C[C@@H](O)CN2C(=O)[C@@H](NC(=O)c2ccc(N3CCC(n4cc(-c5cc(-c6ccccc6O)nnc5N)cn4)CC3)cc2)C(C)(C)C)cc1 [I-515]: < 100 nM
- Cc1ncsc1-c1ccc(CNC(=O)[C@@H]2C[C@@H](O)CN2C(=O)[C@@H](NC(=O)C23CCC(CN4CCC(n5cc(-c6cc(-c7ccccc7O)nnc6N)cn5)CC4)(CC2)CC3)C(C)(C)C)cc1 [I-428]: 100 to 500 nM

What value of DC50 has been recorded for this entry: Cc1ncsc1-c1ccc(CNC(=O)[C@@H]2C[C@@H](O)CN2C(=O)[C@@H](NC(=O)CN2CCC(c3nccc(N4C5CCC4CN(c4cc(-c6ccccc6O)nnc4N)C5)n3)CC2)C(C)(C)C)cc1 [I-450]
100 to 500 nM

====

target: SMARCA4 (Homo sapiens, UniProt P51532); construct: SMARCA2 and SMARCA4 protein degradation in MV4-11 cells; endogenous in cells; host or cells: MV4-11; assay: SMARCA4 Western blot MV4-11 degradation; format: cell-based; details: MV4-11, MV4-11 cells, 24 h, read-out: SMARCA4 WB MV411 degradation 24 h: Average Dmax %
metric: Dmax

Worked examples, 5 compounds total:
- COc1ccccc1-c1cc(N2CC3CCC(C2)N3c2ncc([C@H]3CC[C@@H](CC(=O)N[C@H](C(=O)N4C[C@H](O)C[C@H]4C(=O)NCc4ccc(-c5scnc5C)cc4)C(C)(C)C)CC3)cn2)c(N)nn1: > 90%
- Cc1ncsc1-c1ccc(CNC(=O)[C@@H]2C[C@@H](O)CN2C(=O)[C@@H](NC(=O)Cc2ccc(N3CCC(n4cc(-c5cc(-c6ccccc6O)nnc5N)cn4)CC3)cc2)C(C)(C)C)cc1: < 50%
- Cc1ncsc1-c1ccc(CNC(=O)[C@@H]2C[C@@H](O)CN2C(=O)[C@@H](NC(=O)[C@H]2CC3(C2)C[C@H](c2cnc(N4C5CCC4CN(c4cc(-c6ccccc6O)nnc4N)C5)nc2)C3)C(C)(C)C)c(C(F)(F)F)c1 (stereo partly shown): 70 to 90%
- Cn1c(=O)n(C2CCC(=O)NC2=O)c2ccc([C@H]3CC[C@H](N4CCC(c5cnc(N6C7CCC6CN(c6cc(-c8ccccc8O)nnc6N)C7)nc5)CC4)CC3)cc21 (stereo partly shown): > 90%
- Cc1ncsc1-c1ccc(CNC(=O)[C@@H]2C[C@@H](O)CN2C(=O)[C@@H](NC(=O)CN2CCCC(n3cc(-c4cc(-c5ccccc5O)nnc4N)cn3)C2)C(C)(C)C)cc1 (stereo partly shown): < 50%

Hi there! I need Dmax for each item below, if you can.
1. Cc1ncsc1-c1ccc(CNC(=O)[C@@H]2C[C@@H](O)CN2C(=O)[C@@H](NC(=O)CCCN2CCCC(n3cc(-c4cc(-c5ccccc5O)nnc4N)cn3)C2)C(C)(C)C)cc1 (stereo partly shown)
2. Cc1ncsc1-c1ccc(CNC(=O)[C@@H]2C[C@@H](O)CN2C(=O)[C@@H](NC(=O)CN(C)Cc2ccc(N3CCN(c4cc(-c5ccccc5O)nnc4N)CC3)cc2)C(C)(C)C)cc1
3. Cc1ncsc1-c1ccc(CNC(=O)[C@@H]2C[C@@H](O)CN2C(=O)[C@@H](NC(=O)CC2CCC(c3cnc(N4C5CCC4CN(c4cc(-c6ccccc6O)nnc4N)C5)nc3)CC2)C(C)(C)C)cc1 (stereo partly shown)
4. Cc1ncsc1-c1ccc(CNC(=O)[C@@H]2C[C@@H](O)CN2C(=O)[C@@H](NC(=O)CC2CCC(N3CCC(c4cnc(N5C6CCC5CN(c5cc(-c7ccccc7O)nnc5N)C6)nc4)CC3)CC2)C(C)(C)C)cc1 (stereo partly shown)
5. Cc1ncsc1-c1ccc(CNC(=O)[C@@H]2C[C@@H](O)CN2C(=O)[C@@H](NC(=O)Cc2ccc(-c3ccc(N4CCC(Cn5cc(-c6cc(-c7ccccc7O)nnc6N)cn5)CC4)cc3)cc2)C(C)(C)C)cc1

1. < 50%
2. < 50%
3. > 90%
4. > 90%
5. < 50%

====

Hi there, I'd appreciate the recorded Dmax for every entry that follows.
biological target: SMARCA2 (Homo sapiens); experiment: MSD SMARCA2 degradation in A549 cell line; type: cell-based; conditions: A549, A549 cells, 24 h

Worked examples, 4 compounds total:
* CN(Cc1cccc(C#Cc2cc(NC(=O)Nc3cc(F)ncc3CO)ccn2)c1)C1CCN(Cc2cccc3c2n(C)c(=O)n3C2CCC(=O)NC2=O)CC1 (centres unmarked) [I-318] | < 50%
* Cc1ncsc1-c1ccc(CNC(=O)[C@@H]2C[C@@H](O)CN2C(=O)[C@@H](NC(=O)[C@H]2CC[C@H](CCN3CCC(n4cc(-c5cc(-c6ccccc6O)nnc5N)cn4)CC3)CC2)C(C)(C)C)cc1 [I-399] | > 90%
* Cc1ncsc1-c1ccc(CNC(=O)[C@@H]2C[C@@H](O)CN2C(=O)[C@@H](NC(=O)CCCNCc2cccc(C#Cc3cc(NC(=O)Nc4cc(F)ncc4CO)ccn3)c2)C(C)(C)C)cc1 [I-488] | < 50%
* Cc1ncsc1-c1ccc(CNC(=O)[C@@H]2C[C@@H](O)CN2C(=O)[C@@H](NC(=O)[C@H]2C[C@H](N3CCC(n4cc(-c5cc(-c6ccccc6O)nnc5N)cn4)CC3)C2)C(C)(C)C)cc1 [I-359] | < 50%

Consider now this further compound.
What value of Dmax has been recorded for this entry: Cc1ncsc1-c1ccc(CNC(=O)[C@@H]2C[C@@H](O)CN2C(=O)[C@@H](NC(=O)[C@H]2CCN(Cc3cnc(N4C5CCC4CN(c4cc(-c6ccccc6O)nnc4N)C5)nc3)C2)C(C)(C)C)cc1 [I-387]
< 50%

Value source: patent US12624044B2
